Entry source: paper PMC12478261

Biological target: T1, mCRP (monomeric C-reactive protein) (UniProt P02741 19-224)
T1 sequence: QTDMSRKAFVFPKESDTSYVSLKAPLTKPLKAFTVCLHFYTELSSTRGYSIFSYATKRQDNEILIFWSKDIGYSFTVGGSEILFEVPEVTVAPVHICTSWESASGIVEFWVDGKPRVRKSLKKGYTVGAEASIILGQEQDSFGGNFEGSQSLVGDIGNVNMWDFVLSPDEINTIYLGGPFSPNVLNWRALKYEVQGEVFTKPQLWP
Test: SPR
measured quantity: Kd
Quote the value and follow it with the unit of measurement.

Notebook: CCAATGGCCCTAGGGCTGCAAATCGCTGCC (ssDNA) [ApmCRP3] , Kd read as 400 nM
